- TARGET OF ASSAY: T1, CD32B (UniProt P31994 43-217, limits assumed)
- T1 construct: Only the name is printed; also called FcγRIIB
- T1 sequence (looked up): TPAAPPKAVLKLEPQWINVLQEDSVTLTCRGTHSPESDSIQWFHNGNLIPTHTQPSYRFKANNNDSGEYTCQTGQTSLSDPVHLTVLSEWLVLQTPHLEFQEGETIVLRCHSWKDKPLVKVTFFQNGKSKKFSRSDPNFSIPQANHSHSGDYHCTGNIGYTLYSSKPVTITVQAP
- TEST SUMMARY: assay not named in Table 4
# cutoff 0.4 applies to binding relative to wild-type Fc; >= gives Fulfilled, < gives Not fulfilled

Answered examples (4):
{"columns": ["BINDER", "CLASS ASSIGNMENT"],
 "data": [
  ["Fc variant F243L P247L D270E N421K (other, UniProt P01857-1 104-330, looked up, domain: Fc) DKTHTCPPCPAPELLGGPSVFLLPPKLKDTLMISRTPEVTCVVVDVSHEEPEVKFNWYVDGVEVHNAKTKPREEQYNSTYRVVSVLTVLHQDWLNGKEYKCKVSNKALPAPIEKTISKAKGQPREPQVYTLPPSRDELTKNQVSLTCLVKGFYPSDIAVEWESNGQPENNYKTTPPVLDSDGSFFLYSKLTVDKSRWQQGKVFSCSVMHEALHNHYTQKSLSLSPGK", "Not fulfilled"],
  ["Fc variant F243L R255L D270E P396L (other, UniProt P01857-1 104-330, looked up, domain: Fc) DKTHTCPPCPAPELLGGPSVFLLPPKPKDTLMISLTPEVTCVVVDVSHEEPEVKFNWYVDGVEVHNAKTKPREEQYNSTYRVVSVLTVLHQDWLNGKEYKCKVSNKALPAPIEKTISKAKGQPREPQVYTLPPSRDELTKNQVSLTCLVKGFYPSDIAVEWESNGQPENNYKTTPLVLDSDGSFFLYSKLTVDKSRWQQGNVFSCSVMHEALHNHYTQKSLSLSPGK", "Not fulfilled"],
  ["Fc variant R255L D270E Y300L P396L (other, UniProt P01857-1 104-330, looked up, domain: Fc) DKTHTCPPCPAPELLGGPSVFLFPPKPKDTLMISLTPEVTCVVVDVSHEEPEVKFNWYVDGVEVHNAKTKPREEQYNSTLRVVSVLTVLHQDWLNGKEYKCKVSNKALPAPIEKTISKAKGQPREPQVYTLPPSRDELTKNQVSLTCLVKGFYPSDIAVEWESNGQPENNYKTTPLVLDSDGSFFLYSKLTVDKSRWQQGNVFSCSVMHEALHNHYTQKSLSLSPGK", "Fulfilled"],
  ["Fc variant D270E P396L Q419H (other, UniProt P01857-1 104-330, looked up, domain: Fc) DKTHTCPPCPAPELLGGPSVFLFPPKPKDTLMISRTPEVTCVVVDVSHEEPEVKFNWYVDGVEVHNAKTKPREEQYNSTYRVVSVLTVLHQDWLNGKEYKCKVSNKALPAPIEKTISKAKGQPREPQVYTLPPSRDELTKNQVSLTCLVKGFYPSDIAVEWESNGQPENNYKTTPLVLDSDGSFFLYSKLTVDKSRWQHGNVFSCSVMHEALHNHYTQKSLSLSPGK", "Fulfilled"]
]}

// query Does Fc variant F243L R292P Y300L V305I P396L (other, UniProt P01857-1 104-330, looked up, domain: Fc; also called Mutant 18) DKTHTCPPCPAPELLGGPSVFLLPPKPKDTLMISRTPEVTCVVVDVSHEDPEVKFNWYVDGVEVHNAKTKPPEEQYNSTLRVVSILTVLHQDWLNGKEYKCKVSNKALPAPIEKTISKAKGQPREPQVYTLPPSRDELTKNQVSLTCLVKGFYPSDIAVEWESNGQPENNYKTTPLVLDSDGSFFLYSKLTVDKSRWQQGNVFSCSVMHEALHNHYTQKSLSLSPGK have a reported binding relative to wild-type Fc of at least 0.4?
// result Fulfilled
